target: CDK12/Cyclin K (Homo sapiens, UniProt Q9NYV4); experiment: NanoBRET live-cell target engagement, CDK12-NanoLuc/Cyclin K in HEK-293; format: binding; conditions: average (n=2); read-out: CDK12/K IC50
reported metric: pIC50
# pIC50 is unitless: minus log10 of the molar concentration; print number only

(Q) Return pIC50 measured with CDK12/Cyclin K (Homo sapiens, UniProt Q9NYV4) given this compound: CN1C/C=C/CCOc2cccc(c2)-c2ccnc(n2)Nc2cccc(c2)C1
(A) 6.17

----------
Catalogue of inhibition at 10 µM values
target: CDK18/Cyclin Y (Homo sapiens); experiment: NanoBRET live-cell target engagement, CDK18-NanoLuc/Cyclin Y in HEK-293; format: binding; settings: CDK18/Y; 10µM; read-out: Inhibition at 10µM (%) Replicate 2
Sequence (Q07002 whole entry): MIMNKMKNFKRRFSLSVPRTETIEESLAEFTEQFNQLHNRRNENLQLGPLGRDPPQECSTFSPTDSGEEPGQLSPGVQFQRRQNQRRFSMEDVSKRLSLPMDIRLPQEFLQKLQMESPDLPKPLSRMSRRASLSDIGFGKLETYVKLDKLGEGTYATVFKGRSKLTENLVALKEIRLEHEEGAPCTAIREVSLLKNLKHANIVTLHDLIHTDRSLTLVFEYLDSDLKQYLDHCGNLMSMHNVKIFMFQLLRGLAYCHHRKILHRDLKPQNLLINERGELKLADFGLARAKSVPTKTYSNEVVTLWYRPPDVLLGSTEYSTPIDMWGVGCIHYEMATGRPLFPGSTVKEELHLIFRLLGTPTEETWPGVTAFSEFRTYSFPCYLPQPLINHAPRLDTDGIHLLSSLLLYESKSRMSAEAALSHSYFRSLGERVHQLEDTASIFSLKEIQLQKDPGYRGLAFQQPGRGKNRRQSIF
Sequence (Q8ND76 whole entry partner): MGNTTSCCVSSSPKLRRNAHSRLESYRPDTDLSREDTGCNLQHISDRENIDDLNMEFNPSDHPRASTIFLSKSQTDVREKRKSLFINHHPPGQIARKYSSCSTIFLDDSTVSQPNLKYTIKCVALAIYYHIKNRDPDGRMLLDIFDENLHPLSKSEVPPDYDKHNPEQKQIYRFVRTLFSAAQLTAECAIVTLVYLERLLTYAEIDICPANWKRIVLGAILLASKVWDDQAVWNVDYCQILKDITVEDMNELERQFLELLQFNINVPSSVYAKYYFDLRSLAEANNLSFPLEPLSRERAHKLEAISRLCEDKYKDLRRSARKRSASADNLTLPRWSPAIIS
Response body: numeric value in %, unit text excluded.

(Q) So what's the measured inhibition at 10 µM for this one? CCCCOc1c(C(=O)c2c(F)cc(C)cc2F)c[nH]c2nncc1-2
(A) 92

---
(Q) Give the measured inhibition at 10 µM of COc1cc(F)ccc1-c1cc(Nc2cc(CS(C)(=N)=O)ccn2)ncc1F (centres unmarked) .
(A) 53.8

(Q) # repeat for CCN1CCN(Cc2ccc(Nc3ncc(F)c(-c4cc(F)c5nc(C)n(C(C)C)c5c4)n3)nc2)CC1
(A) 76.3

(Q) Cc1ncc(-c2ccnc(Nc3ccc(S(C)(=O)=O)cc3)n2)n1C(C)C ?
(A) 95.5

(Q) Same read-out for COc1cc(F)ccc1-c1ncnc(Nc2cccc(C[S@](C)(=N)=O)c2)n1 ?
(A) 22.4

----------
target: CDK10/Cyclin L2 (Homo sapiens, UniProt Q15131); assay: NanoBRET live-cell target engagement, CDK10-NanoLuc/Cyclin L2 in HEK-293; details: IC50 (nM), CDK10/L2; experiment 3
Sequence (Q15131 whole entry): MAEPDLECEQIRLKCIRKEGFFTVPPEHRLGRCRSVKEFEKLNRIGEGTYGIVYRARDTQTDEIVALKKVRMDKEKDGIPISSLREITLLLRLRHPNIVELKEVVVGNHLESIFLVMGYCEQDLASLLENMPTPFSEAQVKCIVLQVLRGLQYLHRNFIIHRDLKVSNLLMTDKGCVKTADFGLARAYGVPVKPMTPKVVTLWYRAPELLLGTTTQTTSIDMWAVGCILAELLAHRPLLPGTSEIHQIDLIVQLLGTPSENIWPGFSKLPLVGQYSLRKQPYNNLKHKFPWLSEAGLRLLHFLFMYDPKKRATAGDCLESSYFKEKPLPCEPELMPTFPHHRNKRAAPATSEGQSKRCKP
Recorded IC50, one value per entry.
Provide only the numeric value, understood in nM.

(Q) Look at this compound and give its reported IC50. CN1CCN(Cc2ccc(NC(=O)Nc3ccc(Oc4ccnc(N)n4)cc3)cc2C(F)(F)F)CC1
(A) 670

Here is the next item to consider.
(Q) IC50 for COc1ccc(F)cc1-c1cc(NC(=O)C2CCCNC2)ncc1Cl (centres unmarked) ?
(A) 972

----------
target: CDK3/Cyclin E1 (Homo sapiens, UniProt Q00526); test: NanoBRET live-cell target engagement, CDK3-NanoLuc/Cyclin E1 in HEK-293; format: binding; conditions: CDK3/E1; experiment 1; read-out: Inhibition at 10µM (%)
Sequence (Q00526 whole entry): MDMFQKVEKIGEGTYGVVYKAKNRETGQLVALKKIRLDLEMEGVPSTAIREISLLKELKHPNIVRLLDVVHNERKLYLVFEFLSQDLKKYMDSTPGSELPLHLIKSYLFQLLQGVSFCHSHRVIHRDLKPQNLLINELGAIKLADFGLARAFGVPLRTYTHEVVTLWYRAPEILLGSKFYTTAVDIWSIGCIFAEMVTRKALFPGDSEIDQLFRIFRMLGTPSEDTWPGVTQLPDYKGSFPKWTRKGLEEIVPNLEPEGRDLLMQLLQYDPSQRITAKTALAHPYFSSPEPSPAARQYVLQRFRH
Sequence (P24864 whole entry partner): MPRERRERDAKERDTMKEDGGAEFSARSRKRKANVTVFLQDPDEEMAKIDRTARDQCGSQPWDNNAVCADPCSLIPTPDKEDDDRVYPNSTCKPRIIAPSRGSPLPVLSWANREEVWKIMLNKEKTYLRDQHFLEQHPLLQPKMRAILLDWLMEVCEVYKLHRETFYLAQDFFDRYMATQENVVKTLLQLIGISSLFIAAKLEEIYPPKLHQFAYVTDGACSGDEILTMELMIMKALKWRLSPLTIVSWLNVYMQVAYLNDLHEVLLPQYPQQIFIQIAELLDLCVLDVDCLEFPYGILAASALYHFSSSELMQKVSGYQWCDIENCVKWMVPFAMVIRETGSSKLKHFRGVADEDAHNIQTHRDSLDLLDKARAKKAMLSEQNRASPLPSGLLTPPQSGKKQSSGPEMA
Each entry gets -1 if its inhibition at 10 µM stays under 30%, and 1 if its inhibition at 10 µM is 30% or above.

// known answers, use as guide
(Q) Dear colleague, could you confirm whether COC1CN(C(=O)c2ccc3c(N)ncc(-c4ccc(-c5cnn(C)c5)cc4)c3n2)C1 has inhibition at 10 µM at or above 30%?
(A) -1

(Q) One more compound: COc1ccccc1-c1cc(Nc2cccc(CS(N)(=O)=O)c2)ncn1
(A) -1

(Q) Field entry: N#CCNC(=O)c1ccc(-c2ccnc(Nc3ccc(N4CCOCC4)cc3)n2)cc1
(A) -1

More entries:
(Q) Say whether COc1ccc(F)cc1-c1cc(NC(=O)C2CCCNC2)ncc1Cl (centres unmarked) shows inhibition at 10 µM of 30% or more.
(A) 1

(Q) Field entry: CN1CCN(c2ccc(Nc3ncc4cc(C#N)c(=O)n(C5CCCC5)c4n3)cc2)CC1
(A) -1

(Q) Moving on to CC(C)N1CCN(c2ccc(Nc3ncc4cc5n(c4n3)C3(CCCCC3)CNC5=O)nc2)CC1
(A) -1

(Q) Next compound: CNC(=O)c1nn(C)c2c1C(C)(C)Cc1cnc(Nc3ccc(N4CCN(C)CC4)cc3)nc1-2
(A) 1

(Q) How about this compound: CN1CC[C@H](c2c(O)cc(O)c3c(=O)cc(-c4ccccc4Cl)oc23)[C@H](O)C1
(A) 1

----------
molecular target: CDK19/Cyclin C (Homo sapiens, UniProt Q9BWU1); assay: NanoBRET live-cell target engagement, NanoLuc-CDK19/Cyclin C in HEK-293; details: IC50 for CDK/cyclin complexes, CDK19/C, live HEK-293, 2 h; mean ± S.E.M. (n=3) or mean (n=2)
Sequence (Q9BWU1 whole entry): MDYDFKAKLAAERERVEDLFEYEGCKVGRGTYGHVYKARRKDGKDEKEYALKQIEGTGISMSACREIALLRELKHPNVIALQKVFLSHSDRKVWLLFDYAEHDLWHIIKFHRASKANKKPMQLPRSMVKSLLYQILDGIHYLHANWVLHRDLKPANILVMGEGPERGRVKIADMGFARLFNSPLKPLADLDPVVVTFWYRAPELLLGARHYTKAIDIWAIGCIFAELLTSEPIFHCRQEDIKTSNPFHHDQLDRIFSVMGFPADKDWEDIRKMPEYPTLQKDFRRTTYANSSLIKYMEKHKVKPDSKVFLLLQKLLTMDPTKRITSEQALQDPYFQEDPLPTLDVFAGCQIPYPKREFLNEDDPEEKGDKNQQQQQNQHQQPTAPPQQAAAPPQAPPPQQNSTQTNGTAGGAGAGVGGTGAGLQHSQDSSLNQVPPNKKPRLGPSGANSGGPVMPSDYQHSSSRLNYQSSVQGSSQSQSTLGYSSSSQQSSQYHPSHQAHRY
Sequence (P24863 whole entry partner): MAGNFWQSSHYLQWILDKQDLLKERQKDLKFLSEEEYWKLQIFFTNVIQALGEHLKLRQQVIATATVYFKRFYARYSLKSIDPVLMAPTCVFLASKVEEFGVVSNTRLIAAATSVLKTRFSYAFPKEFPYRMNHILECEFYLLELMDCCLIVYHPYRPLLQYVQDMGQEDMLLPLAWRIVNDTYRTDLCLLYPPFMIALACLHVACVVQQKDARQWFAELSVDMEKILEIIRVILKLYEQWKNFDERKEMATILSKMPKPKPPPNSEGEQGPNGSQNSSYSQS
The molecules listed here are annotated with their IC50.

Check out these entries, answers already filled in.
(Q) Can you share its IC50? I mean this molecule: CN1CCN(Cc2ccc(NC(=O)Nc3ccc(Oc4ccnc(N)n4)cc3)cc2C(F)(F)F)CC1
(A) 1.4 nM

(Q) What about CCCCOc1c(C(=O)c2c(F)cc(C)cc2F)c[nH]c2nncc1-2 ?
(A) 1.5 nM

(Q) Entry to check: CN1CC[C@H](c2c(O)cc(O)c3c(=O)cc(-c4ccccc4Cl)oc23)[C@H](O)C1
(A) 19 nM

Next molecule, please.
(Q) Reported IC50, molecule COC1CN(C(=O)c2ccc3c(N)ncc(-c4ccc(-c5cnn(C)c5)cc4)c3n2)C1 : ____
(A) 10 nM

----------
Overview of recorded Inhibition at 10µM (%) for various molecules
target: CDK4/Cyclin D1 (Homo sapiens, UniProt P11802); experiment: NanoBRET live-cell target engagement, NanoLuc-CDK4/Cyclin D1 in HEK-293; assay type: binding; conditions: CDK4/D1; experiment 1
Sequence (P11802 whole entry): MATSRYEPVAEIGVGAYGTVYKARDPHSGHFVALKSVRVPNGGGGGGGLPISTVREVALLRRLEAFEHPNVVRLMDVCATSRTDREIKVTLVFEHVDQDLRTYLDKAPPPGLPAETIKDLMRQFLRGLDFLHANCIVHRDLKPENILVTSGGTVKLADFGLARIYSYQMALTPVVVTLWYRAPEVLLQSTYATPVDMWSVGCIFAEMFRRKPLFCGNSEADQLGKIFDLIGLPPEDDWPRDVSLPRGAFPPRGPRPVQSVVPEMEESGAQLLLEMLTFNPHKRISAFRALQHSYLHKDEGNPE
Sequence (P24385 whole entry partner): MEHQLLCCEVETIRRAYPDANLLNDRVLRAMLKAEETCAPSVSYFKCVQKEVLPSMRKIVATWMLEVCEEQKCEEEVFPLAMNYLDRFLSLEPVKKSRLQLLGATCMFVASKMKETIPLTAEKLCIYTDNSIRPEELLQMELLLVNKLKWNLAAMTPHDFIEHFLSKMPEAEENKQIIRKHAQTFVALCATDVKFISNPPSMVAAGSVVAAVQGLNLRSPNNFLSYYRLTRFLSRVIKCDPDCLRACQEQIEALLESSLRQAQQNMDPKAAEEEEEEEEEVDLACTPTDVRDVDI
Write the value in % as a bare number.

(Q) Report Inhibition at 10µM (%) for CCn1cnc2c(Nc3cccc(Cl)c3)nc(N[C@@H]3CCCC[C@@H]3N)nc21 [CGP74514A] tested on CDK4/Cyclin D1 (Homo sapiens, UniProt P11802).
(A) 63.2

(Q) Check CS(=O)(=O)N1CCC(NC(=O)c2[nH]ncc2NC(=O)c2c(Cl)cccc2Cl)CC1 [NVP-LCQ195] too.
(A) 100.8

(Q) Then CC(C)c1cnn2c(NCc3ccccc3-n3cccn3)nc(OC3CCCNC3)nc12 (stereo not drawn) [LDC4297] ?
(A) 52.3

(Q) Do the same for CN1CCC(c2c(O)cc(O)c3c(=O)cc(-c4ccccc4Cl)oc23)C1CO (stereo not drawn) [P276-00] please
(A) 79.0

(Q) Ok, now CC(C)c1c2cc(-c3ccnc(N[C@H]4CC[C@H](NC5CCOCC5)CC4)n3)ccc2nn1C [LY2857785]
(A) 97.8

(Q) Cool, now CNc1nc(C)c(-c2nc(Nc3cccc(S(N)(=O)=O)c3)ncc2F)s1 [CDKI-73]
(A) 99.0

----------
target: CDK19/Cyclin C (Homo sapiens, UniProt Q9BWU1); experiment: NanoBRET live-cell target engagement, NanoLuc-CDK19/Cyclin C in HEK-293; settings: read-out: Inhibition at 10µM (%) Replicate 2, CDK19/C; 10µM
Listed here: items and their measured inhibition at 10 µM.
Just the number please, in %, no unit attached.

# annotated cases, reported inhibition at 10 µM shown
(Q) # value lookup — system CDK19/Cyclin C (Homo sapiens, UniProt Q9BWU1), readout inhibition at 10 µM, item C[C@H]1CC[C@H](n2c3cnccc3c3cnc(Nc4ccc5c(n4)CCN(C(=O)CO)C5)nc32)CC1
(A) 14.4

(Q) Subsequent entry: CCN1CCN(Cc2ccc(Nc3ncc(F)c(-c4cc(F)c5nc(C)n(C(C)C)c5c4)n3)nc2)CC1
(A) 39.5

(Q) Now try CC(C)c1cnn2c(NCc3ccccc3)cc(NCCCCCCN)nc12 .
(A) -18.6

(Q) Same for COc1cc(F)ccc1-c1cc(Nc2cc(CS(C)(=N)=O)ccn2)ncc1F (stereo not drawn)
(A) 13.7

(Q) # iterate: CCN1CCN(Cc2ccc(NC(=O)Nc3ccc(Oc4cc(NC)ncn4)cc3)cc2C(F)(F)F)CC1
(A) 103

(Q) Subsequent entry: Cc1ncc(-c2ccnc(Nc3ccc(S(C)(=O)=O)cc3)n2)n1C(C)C
(A) 95.1

(Q) Same thing, different molecule: O=C(NC1CCNCC1)c1[nH]ncc1NC(=O)c1c(Cl)cccc1Cl
(A) 37.9

(Q) Follow-up item: COc1cc(F)ccc1-c1ncnc(Nc2cccc(C[S@](C)(=N)=O)c2)n1
(A) 9.9

Now turn to the next molecule.
(Q) Lab request: please report inhibition at 10 µM under test system CDK19/Cyclin C (Homo sapiens, UniProt Q9BWU1) for CCCCOc1c(C(=O)c2c(F)cc(C)cc2F)c[nH]c2nncc1-2
(A) 92.2

----------
biological target: CDK6/Cyclin D1 (Homo sapiens); assay: NanoBRET live-cell target engagement, NanoLuc-CDK6/Cyclin D1 in HEK-293; format: binding; conditions: CDK6/D1; experiment 2; read-out: IC50
Sequence (Q00534 whole entry): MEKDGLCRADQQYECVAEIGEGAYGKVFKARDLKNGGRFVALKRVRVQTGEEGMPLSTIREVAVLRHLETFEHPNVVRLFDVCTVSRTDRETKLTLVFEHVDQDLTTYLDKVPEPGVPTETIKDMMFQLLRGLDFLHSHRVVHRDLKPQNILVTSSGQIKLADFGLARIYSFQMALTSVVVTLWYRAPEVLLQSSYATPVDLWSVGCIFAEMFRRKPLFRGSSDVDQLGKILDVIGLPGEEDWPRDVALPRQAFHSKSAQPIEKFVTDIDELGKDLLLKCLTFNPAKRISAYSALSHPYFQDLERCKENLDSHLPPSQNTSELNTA
Sequence (P24385 whole entry partner): as the sequence (P24385 whole entry partner) above
reported metric: pIC50
Please note pIC50 is a logarithmic value: minus log10 of concentration in mol/L. Answer with that number alone.

Worked cases, answers included:
(Q) Quick check: pIC50 of CS(=O)(=O)N1CCC(NC(=O)c2[nH]ncc2NC(=O)c2c(Cl)cccc2Cl)CC1 [NVP-LCQ195] ?
(A) 7.92

(Q) What about this compound? CNC(=O)c1nn(C)c2c1C(C)(C)Cc1cnc(Nc3ccc(N4CCN(C)CC4)cc3)nc1-2 [Milciclib]
(A) 7.08

(Q) Request: CN1CCN(c2ccc(Nc3ncc4cc(C#N)c(=O)n(C5CCCC5)c4n3)cc2)CC1 [ON123300]
(A) 8.47

(Q) Field entry: CC(C)c1c2cc(-c3ccnc(N[C@H]4CC[C@H](NC5CCOCC5)CC4)n3)ccc2nn1C [LY2857785]
(A) 7.01

(Q) Would you mind doing N#CCNC(=O)c1ccc(-c2ccnc(Nc3ccc(N4CCOCC4)cc3)n2)cc1 [Momelotinib] as well?
(A) 6.50

(Q) Try this compound next: CNc1nc(C)c(-c2nc(Nc3cccc(S(N)(=O)=O)c3)ncc2F)s1 [CDKI-73]
(A) 8.18

Continuing:
(Q) Entry CC(C)c1cnn2c(NCc3ccccc3-n3cccn3)nc(OC3CCCNC3)nc12 (centres unmarked) [LDC4297] : reported pIC50 = ?
(A) 6.57

(Q) Next up: CN1CCC(c2c(O)cc(O)c3c(=O)cc(-c4ccccc4Cl)oc23)C1CO (centres unmarked) [P276-00]
(A) 6.66
